Attribute: pERK-HEK293-Beta-klotho without HSA [EC50 (nM)] Median Value
# measurement.target: T1, human beta-Klotho (human, UniProt Q86Z14 1-1044)
# T1 sequence (looked up): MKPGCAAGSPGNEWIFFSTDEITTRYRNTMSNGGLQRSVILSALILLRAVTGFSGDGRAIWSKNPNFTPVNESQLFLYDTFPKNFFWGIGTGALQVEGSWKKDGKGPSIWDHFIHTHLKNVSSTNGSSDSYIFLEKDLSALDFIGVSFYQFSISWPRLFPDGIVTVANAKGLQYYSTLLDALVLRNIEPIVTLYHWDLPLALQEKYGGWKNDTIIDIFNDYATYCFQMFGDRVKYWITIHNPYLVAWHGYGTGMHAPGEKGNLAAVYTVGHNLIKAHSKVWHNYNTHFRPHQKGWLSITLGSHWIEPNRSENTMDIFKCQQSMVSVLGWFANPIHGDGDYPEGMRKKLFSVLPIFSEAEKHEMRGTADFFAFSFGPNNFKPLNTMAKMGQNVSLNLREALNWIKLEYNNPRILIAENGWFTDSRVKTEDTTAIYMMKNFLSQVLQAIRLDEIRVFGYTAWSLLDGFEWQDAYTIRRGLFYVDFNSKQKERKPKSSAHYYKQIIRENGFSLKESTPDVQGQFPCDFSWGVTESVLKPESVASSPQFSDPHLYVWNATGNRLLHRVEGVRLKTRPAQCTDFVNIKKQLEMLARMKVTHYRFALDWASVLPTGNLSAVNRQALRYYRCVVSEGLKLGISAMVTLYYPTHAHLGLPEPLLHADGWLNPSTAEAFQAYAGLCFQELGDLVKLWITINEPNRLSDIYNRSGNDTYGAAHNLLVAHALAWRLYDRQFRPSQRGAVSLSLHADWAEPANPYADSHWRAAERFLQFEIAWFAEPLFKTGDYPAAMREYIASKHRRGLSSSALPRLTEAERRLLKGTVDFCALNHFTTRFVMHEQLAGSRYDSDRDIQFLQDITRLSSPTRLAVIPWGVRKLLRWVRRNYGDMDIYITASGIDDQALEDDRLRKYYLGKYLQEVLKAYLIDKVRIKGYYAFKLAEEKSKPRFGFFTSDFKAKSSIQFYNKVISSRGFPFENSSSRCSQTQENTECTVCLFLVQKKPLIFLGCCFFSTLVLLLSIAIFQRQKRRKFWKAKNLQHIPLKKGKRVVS
# assay.explanation: cell-based or functional assay
Only the number, expressed in nM, is required.

INSERT INTO assay_data (binder, recorded_value) VALUES
  ('(166F, 167G, 168L, 169aT, 171L, 172E, 173A, 174V, 179F, 180E, 181K) (Compound Z) (ligand) MHPIPDSSPLLQFGGQVRQRYLYTDDAQQTEAHLEIREDGTVGGAADQSPESLLQLKALKPGVIQILGVKTSRFLCQRPDGALYGSLHFDPEACSFRELLLEDGYNVYQSEAHGLPLHLPGNKSPHRDPAPRGPARFLPLPGLPPALPEPPGILAPQPPDVGSSDPFGLVTGLEAVRSPSFEK', 1);

Ask: Given (S71C) Gly-FGF21 (ligand) GHPIPDSSPLLQFGGQVRQRYLYTDDAQQTEAHLEIREDGTVGGAADQSPESLLQLKALKPGVIQILGVKTCRFLCQRPDGALYGSLHFDPEACSFRELLLEDGYNVYQSEAHGLPLHLPGNKSPHRDPAPRGPARFLPLPGLPPALPEPPGILAPQPPDVGSSDPLSMVGPSQGRSPSYAS , state its recorded pERK-HEK293-Beta-klotho without HSA [EC50 (nM)] Median Value.
Reply: 2.5

Ask: Given Met-FGF21 (ligand) MHPIPDSSPLLQFGGQVRQRYLYTDDAQQTEAHLEIREDGTVGGAADQSPESLLQLKALKPGVIQILGVKTSRFLCQRPDGALYGSLHFDPEACSFRELLLEDGYNVYQSEAHGLPLHLPGNKSPHRDPAPRGPARFLPLPGLPPALPEPPGILAPQPPDVGSSDPLSMVGPSQGRSPSYAS , state its recorded pERK-HEK293-Beta-klotho without HSA [EC50 (nM)] Median Value.
Reply: 1.6
